- target-desc: rVDAC1-GFP2 / rVDAC1-Rluc in T-REx-293 cells (Rattus norvegicus, UniProt Q9Z2L0)
- Construct: The rVDAC1 gene was cloned into BamHI and HindIII sites of the BRET2 plasmids (N2 variants); expressed in transfected cells; host or cells: T-REx-293 cells stably expressing hVDAC1-shRNA (T-REx-pS10)
- Sequence (Q9Z2L0 with tags, fused parts or gaps limits assumed): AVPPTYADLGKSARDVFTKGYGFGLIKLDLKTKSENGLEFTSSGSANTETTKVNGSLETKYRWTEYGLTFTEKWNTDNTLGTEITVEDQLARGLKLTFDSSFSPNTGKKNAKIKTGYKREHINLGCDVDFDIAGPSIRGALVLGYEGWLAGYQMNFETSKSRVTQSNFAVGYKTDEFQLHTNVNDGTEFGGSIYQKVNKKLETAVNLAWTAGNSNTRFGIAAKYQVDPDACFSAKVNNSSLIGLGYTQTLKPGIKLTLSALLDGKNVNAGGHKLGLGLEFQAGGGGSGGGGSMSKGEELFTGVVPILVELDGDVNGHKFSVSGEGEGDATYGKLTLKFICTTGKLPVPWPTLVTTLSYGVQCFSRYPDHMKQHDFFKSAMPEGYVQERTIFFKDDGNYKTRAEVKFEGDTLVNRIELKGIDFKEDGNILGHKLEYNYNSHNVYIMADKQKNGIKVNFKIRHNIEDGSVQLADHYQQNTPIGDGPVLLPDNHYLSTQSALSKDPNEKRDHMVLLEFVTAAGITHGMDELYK
- protocol-summary: BRET2 assay of VDAC1 oligomerization induced by apoptosis inducers (Method A)
- Format: cell-based
- particulars: test compound 10 μM, 1 h pre-incubation, STS 1 μM (3 h)
Can you tell me BRET2, % of inhibition, STS for the items I'm about to list?
Write the value in % as a bare number.

Ask: Look up and report measured BRET2, % of inhibition, STS for this entry: COC(=O)C1(C)Cc2cc(OC(C)=O)c(OC(C)=O)cc2N1 (stereo not shown)
Result: 0

Ask: Look up and report measured BRET2, % of inhibition, STS for this entry: O=c1c(-c2ccc(O)cc2)coc2cc(O)cc(O)c12
Result: 0

Ask: Look up and report measured BRET2, % of inhibition, STS for this entry: COc1c(NC(C)=O)c2ccccc2c2ccccc12
Result: 0

Ask: Look up and report measured BRET2, % of inhibition, STS for this entry: CC(C)NC(=O)c1ccc(C(C)C)cc1
Result: 0

Ask: Look up and report measured BRET2, % of inhibition, STS for this entry: NCc1c(O)ccc2ccccc12
Result: 36.8

Ask: Look up and report measured BRET2, % of inhibition, STS for this entry: CN(C)c1ccc(N=Nc2cccc3ccoc23)cc1
Result: 33.4

Ask: Look up and report measured BRET2, % of inhibition, STS for this entry: Nc1ccc(NC(=O)Nc2ccc(N)cc2)cc1
Result: 40.9

Ask: Look up and report measured BRET2, % of inhibition, STS for this entry: CC1=CC(=O)C(C(C)=Nc2ccccc2Cl)C(=O)O1 (stereo not shown)
Result: 0

Ask: Look up and report measured BRET2, % of inhibition, STS for this entry: O=[N+]([O-])c1cccc(/C=C/c2ccccn2)c1
Result: 0

Ask: Look up and report measured BRET2, % of inhibition, STS for this entry: O=C(Nc1ccccc1-c1ccccc1)C(=O)Nc1ccccc1-c1ccccc1
Result: 0
